Values from ChEMBL document CHEMBL3351504

Test: Permeability from basolateral to apical side in human Caco2 cells
Assay type: ADME, cell-based
Conditions: Caco-2, read-out: permeability
Result type: Papp B→A (×10⁻⁶ cm/s)

Consider the reported Papp B→A for these molecules:
[[record]]
molecule = "COC[C@H](NC(=O)Cc1cc(Cl)cc(Cl)c1)C(=O)NCc1ccnc(C#N)n1"
obs_value = 14.8

[[record]]
molecule = "CC[C@H](C)[C@H](NC(=O)C(c1cc(Cl)cc(Cl)c1)N(C)C)C(=O)NCc1ccnc(C#N)n1 (mixture of isomers)"
obs_value = 10.1

[[record]]
molecule = "N#CCNC(=O)CNC(=O)C(Cc1ccccn1)NC(=O)Cc1cc(Cl)cc(Cl)c1 (racemic)"
obs_value = 15

[[record]]
molecule = "CC(C)(C)[C@H](NC(=O)Cc1cc(Cl)cc(Cl)c1)C(=O)NCC(=O)NCC#N"
obs_value = 23.8

[[record]]
molecule = "N#CCNC(=O)CNC(=O)[C@H](Cc1ccccc1)NC(=O)Cc1cccc(Cl)c1"
obs_value = 7.4


I. CC[C@H](C)[C@H](NC(=O)[C@@H](O)c1cc(Cl)cc(Cl)c1)C(=O)NCc1ccnc(C#N)n1
II. CS(=O)(=O)N[C@H](C(=O)N[C@@H](Cc1ccccc1)C(=O)NCC(=O)NCC#N)c1cccc(Cl)c1
# returns the entry with the larger Papp B→A; inputs I and II Select an item and report its label. I
(I: 11.3 ×10⁻⁶ cm/s, II: 7.5 ×10⁻⁶ cm/s)

* * *

Experiment: High throughput equilibrium solubility at pH 6.8
Assay type: physicochemical
Settings: buffer
Result type: solubility thermodynamic (µM)

[[record]]
compound = "CC[C@H](C(=O)N[C@H](C(=O)NCC(=O)NCC#N)C(C)(C)C)c1cc(Cl)cc(Cl)c1"
result_type = "solubility thermodynamic"
obs_value = 5

[[record]]
compound = "CS(=O)(=O)N[C@H](C(=O)N[C@@H](Cc1ccccc1)C(=O)NCC(=O)NCC#N)c1cccc(Cl)c1"
result_type = "solubility thermodynamic"
obs_value = 170

[[record]]
compound = "COC[C@H](NC(=O)Cc1cc(Cl)cc(Cl)c1)C(=O)NCc1ccnc(C#N)n1"
result_type = "solubility thermodynamic"
obs_value = 52

[[record]]
compound = "CC[C@H](C)[C@H](NC(=O)C(c1cc(Cl)cc(Cl)c1)N(C)C)C(=O)NCc1ccnc(C#N)n1 (mixture of isomers)"
result_type = "solubility thermodynamic"
obs_value = 61

[[record]]
compound = "N#CCNC(=O)CNC(=O)[C@H](Cc1ccccc1)NC(=O)Cc1cccc(Cl)c1"
result_type = "solubility thermodynamic"
obs_value = 150


P. CC[C@H](C(=O)N[C@H](C(=O)NCC(=O)NCC#N)[C@@H](C)O)c1cc(Cl)cc(Cl)c1
Q. CC(C)(C)[C@H](NC(=O)Cc1cc(Cl)cc(Cl)c1)C(=O)NCC(=O)NCC#N
# returns the entry with the larger solubility thermodynamic; inputs P and Q Select an item and report its label. P

* * *

Assay: Permeability from basolateral to apical side in human Caco2 cells
Type: ADME, cell-based
Conditions: Caco-2, read-out: permeability
Result type: Papp B→A (×10⁻⁶ cm/s)

1. N#CCNC(=O)CNC(=O)[C@H](Cc1ccccc1)NC(=O)Cc1cc(Cl)cc(Cl)c1
2. CC[C@H](C)[C@H](NC(=O)[C@@H](O)c1cc(Cl)cc(Cl)c1)C(=O)NCC(=O)NCC#N
# returns the entry with the larger Papp B→A; inputs 1 and 2 Select an item and report its label. 2

* * *

Test: Permeability from apical to basolateral side in human Caco2 cells
Assay type: ADME, cell-based
Conditions: Caco-2, read-out: permeability
Result type: Papp A→B (×10⁻⁶ cm/s)

[[record]]
smi = "N#CCNC(=O)CNC(=O)[C@H](Cc1ccccc1)NC(=O)Cc1cccc(Cl)c1"
obs_value = 1.2


P. CC[C@H](C(=O)N[C@H](C(=O)NCC(=O)NCC#N)C(C)(C)C)c1cc(Cl)cc(Cl)c1
Q. N#CCNC(=O)CNC(=O)[C@H](CN)NC(=O)Cc1cc(Cl)cc(Cl)c1
R. C[C@@H](O)[C@H](NC(=O)Cc1cc(Cl)cc(Cl)c1)C(=O)NCc1ccnc(C#N)n1
S. CC[C@H](C)[C@H](NC(=O)[C@@H](O)c1cc(Cl)cc(Cl)c1)C(=O)NCC(=O)NCC#N
Write the entries in order, lowest recorded Papp A→B first. Your answer should be the labels, listed in the requested order. Q, S, P, R
(Q: 1 ×10⁻⁶ cm/s, S: 3 ×10⁻⁶ cm/s, P: 7.3 ×10⁻⁶ cm/s, R: 12.2 ×10⁻⁶ cm/s)

* * *

Assay: Inhibition of human adenovirus serotype 5 adenain protease expressed in Escherichia coli […] (DE3) using Ac-WLRGG*ARC(PT14)-NH2 as substrate by FLT assay
Parameters: species or system Human adenovirus 5
pIC50: −log10 of the molar value.
Result type: pIC50

Consider the reported pIC50 for these compounds:
[[record]]
compound = "N#CCNC(=O)CNC(=O)[C@H](Cc1ccccc1)NC(=O)Cc1cc(Cl)cc(Cl)c1"
result_type = "pIC50"
obs_value = 7.40

[[record]]
compound = "CS(=O)(=O)N[C@H](C(=O)N[C@@H](Cc1ccccc1)C(=O)NCC(=O)NCC#N)c1cccc(Cl)c1"
result_type = "pIC50"
obs_value = 7.52

[[record]]
compound = "N#CCNC(=O)CNC(=O)[C@H](CN)NC(=O)Cc1cc(Cl)cc(Cl)c1"
result_type = "pIC50"
obs_value = 7.40


a. C[C@@H](O)[C@H](NC(=O)Cc1cc(Cl)cc(Cl)c1)C(=O)NCC(=O)NCC#N
b. N#CCNC(=O)CNC(=O)[C@H](Cc1ccccc1)NC(=O)Cc1cccc(Cl)c1
c. CC[C@H](C)[C@H](NC(=O)[C@@H](O)c1cc(Cl)cc(Cl)c1)C(=O)NCc1ccnc(C#N)n1
Hey, quick one: sort these by pIC50, top value first please. Your answer should be the labels, listed in the requested order. c, a, b

* * *

Assay: Permeability from apical to basolateral side in human Caco2 cells
Type: ADME, cell-based
Details: Caco-2, read-out: permeability
Result type: Papp A→B (×10⁻⁶ cm/s)

Consider the reported Papp A→B for these molecules:
[[record]]
molecule = "CS(=O)(=O)N[C@H](C(=O)N[C@@H](Cc1ccccc1)C(=O)NCC(=O)NCC#N)c1cccc(Cl)c1"
result_type = "Papp A→B"
obs_value = 1.2

[[record]]
molecule = "N#CCNC(=O)CNC(=O)C(Cc1ccccn1)NC(=O)Cc1cc(Cl)cc(Cl)c1 (racemic)"
result_type = "Papp A→B"
obs_value = 0.7

[[record]]
molecule = "N#CCNC(=O)CNC(=O)[C@H](Cc1ccccc1)NC(=O)[C@@H](O)c1cccc(Cl)c1"
result_type = "Papp A→B"
obs_value = 2.2

[[record]]
molecule = "COC[C@H](NC(=O)Cc1cc(Cl)cc(Cl)c1)C(=O)NCc1ccnc(C#N)n1"
result_type = "Papp A→B"
obs_value = 23.2

[[record]]
molecule = "CC[C@H](C)[C@H](NC(=O)[C@@H](O)c1cc(Cl)cc(Cl)c1)C(=O)NCc1ccnc(C#N)n1"
result_type = "Papp A→B"
obs_value = 18.3


1. CC(C)(C)[C@H](NC(=O)Cc1cc(Cl)cc(Cl)c1)C(=O)NCC(=O)NCC#N
2. CC[C@H](C)[C@H](NC(=O)C(c1cc(Cl)cc(Cl)c1)N(C)C)C(=O)NCc1ccnc(C#N)n1 (mixture of isomers)
3. CC[C@H](C(=O)N[C@H](C(=O)NCC(=O)NCC#N)[C@@H](C)O)c1cc(Cl)cc(Cl)c1
4. N#CCNC(=O)CNC(=O)[C@H](Cc1ccccc1)NC(=O)Cc1cc(Cl)cc(Cl)c1
Hey, quick one: sort these by Papp A→B, largest value first please. Your answer should be the labels, listed in the requested order. 2, 1, 3, 4
(2: 17.8 ×10⁻⁶ cm/s, 1: 5.4 ×10⁻⁶ cm/s, 3: 2.6 ×10⁻⁶ cm/s, 4: 1.2 ×10⁻⁶ cm/s)

* * *

Test: Inhibition of human adenovirus serotype 5 adenain protease expressed in Escherichia coli […] (DE3) using Ac-WLRGG*ARC(PT14)-NH2 as substrate by FLT assay
Design: species or system Human adenovirus 5
pIC50: −log10 of the molar value.
Result type: pIC50

Consider the reported pIC50 for these compounds:
[[record]]
compound = "COC[C@H](NC(=O)Cc1cc(Cl)cc(Cl)c1)C(=O)NCc1ccnc(C#N)n1"
obs_value = 8.70

[[record]]
compound = "N#CCNC(=O)CNC(=O)C(Cc1ccccn1)NC(=O)Cc1cc(Cl)cc(Cl)c1 (racemic)"
obs_value = 6.85

[[record]]
compound = "CC(C)(C)[C@H](NC(=O)Cc1cc(Cl)cc(Cl)c1)C(=O)NCC(=O)NCC#N"
obs_value = 7.40

[[record]]
compound = "CC(C(=O)N[C@@H](Cc1ccccc1)C(=O)NCC(=O)NCC#N)c1cc(Cl)cc(Cl)c1 (mixture of isomers)"
obs_value = 8.22


I. C[C@@H](O)[C@H](NC(=O)Cc1cc(Cl)cc(Cl)c1)C(=O)NCc1ccnc(C#N)n1
II. CC[C@H](C)[C@H](NC(=O)[C@@H](O)c1cc(Cl)cc(Cl)c1)C(=O)NCC(=O)NCC#N
III. CC[C@H](C(=O)N[C@H](C(=O)NCC(=O)NCC#N)[C@@H](C)O)c1cc(Cl)cc(Cl)c1
IV. CC[C@H](C(=O)N[C@H](C(=O)NCC(=O)NCC#N)C(C)(C)C)c1cc(Cl)cc(Cl)c1
Hey, quick one: sort these by pIC50, top value first please. Your answer should be the labels, listed in the requested order. I, III, IV, II
